PROTOCOL NOTES: Ring1 mRNA increase in mouse ESCs, confirmation, esBAF inhibitor project, cell-based, mouse ESC, RT-qPCR, cherry-pick (AID 743176);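 note: Ring1 transcript normalised to actin housekeeping signal by TaqMan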
TEST PARAMETERS: mouse ESC E14, Ring1 mRNA RT-qPCR fold change; at 33 µM; stronger effect = higher value
The list shows a part of the results.
ENDPOINT LABEL: fold change
No unit in the answer, only the number.

Task item: So what does the record say about fold change for COC(=O)/C(=C1\Oc2ccc(C(C)(C)C)cc2S1)C(F)(F)F ?
Reply: 1.09

Task item: What about COc1ccc(-c2csc(Nc3cccc(C)n3)n2)cc1OC ?
Reply: 1.24

Task item: What about COc1ccc(Nc2ncnc3sc(C)cc23)cc1 ?
Reply: 1.33

Task item: What about O=C(NN=Cc1ccc2c(c1)CCC2)c1ccccc1O ?
Reply: 1.24

Task item: What about COc1ccc(Nc2ccc3ccccc3c2)cc1 ?
Reply: 1.14

Task item: What about Cc1ccc(-c2nc(COC(=O)c3c(C)noc3C)cs2)cc1 ?
Reply: 1.18

Task item: What about C/C(=C\C(=O)c1cccnc1)Nc1ccc(C)c(C)c1 ?
Reply: 1.07

Task item: What about CCc1c(C)sc(NC(=O)c2cccs2)c1C(N)=O ?
Reply: 0.944

Task item: What about CN(C)c1ccc(CSc2ccccc2)cc1 ?
Reply: 1.08

Task item: What about CC(Cc1cccs1)NC(=O)c1cccc(Cl)c1 (stereo unspecified) ?
Reply: 1.07

Task item: What about COc1ccc(CNC(=O)COc2ccccc2C(=O)c2cnn(-c3ccccc3)c2)cc1OC ?
Reply: 1.32
